Values from paper PMC9667936

# Target System: 14-3-3γ (Homo sapiens, UniProt P61981)
# Construct: made in house; host or cells: E. coli NiCo21 (DE3)
# Procedure Summary: Isothermal titration calorimetry (ITC) of 14-3-3 binding to peptide
# Condition Info: Table S6; ITC, 25 °C; run 2
Where a SMILES comes first, the peptide text is derived from it. [ ]: non-standard residue; d: D form. ξ: configuration not given here. Phe(4-NO2) = N[C@@H](Cc1ccc([N+](=O)[O-])cc1)C(=O)O; ξAla(4-thiazolyl) = NC(Cc1cscn1)C(=O)O; pS = N[C@@H](COP(=O)(O)O)C(=O)O; β3hS = N[C@@H](CO)CC(=O)O; Nva = CCC[C@H](N)C(=O)O; ξβ3hS = NC(CO)CC(=O)O; βAla = NCCC(=O)O
Quantity Measured: -TΔS

1) CCC[C@H](NC(=O)[C@H](N)CCCCN)C(=O)N[C@@H](Cc1ccc([N+](=O)[O-])cc1)C(=O)NC(Cc1cscn1)C(=O)N[C@@H](COP(=O)(O)O)C(=O)N[C@@H](Cc1ccc([N+](=O)[O-])cc1)C(=O)N[C@@H](CO)CC(=O)NCCC(=O)N[C@@H](C)C(=O)N[C@@H](CCCCN)C(N)=O (stereo partly drawn) [5c] (H-[dK][Nva][Phe(4-NO2)][ξAla(4-thiazolyl)][pS][Phe(4-NO2)][β3hS][βAla]AK-NH2; N-terminus and C-terminus assumed) :: -3,779 kcal mol^-1

Query string: Tell me the measured -TΔS of CCC[C@H](NC(=O)[C@H](N)CCCCN)C(=O)N[C@@H](Cc1ccc([N+](=O)[O-])cc1)C(=O)NC(Cc1cscn1)C(=O)N[C@@H](COP(=O)(O)O)C(=O)N[C@@H](Cc1ccc([N+](=O)[O-])cc1)C(=O)NC(CO)CC(=O)NCCC(=O)N[C@@H](Cc1ccc([N+](=O)[O-])cc1)C(=O)N[C@@H](CCCCN)C(N)=O (stereo partly drawn) [compound 1] (H-[dK][Nva][Phe(4-NO2)][ξAla(4-thiazolyl)][pS][Phe(4-NO2)][ξβ3hS][βAla][Phe(4-NO2)]K-NH2) , please.
Result string: 0,426 kcal mol^-1

Query string: Again, but for CCC[C@H](NC(=O)[C@H](N)CCCCN)C(=O)N[C@@H](Cc1ccc([N+](=O)[O-])cc1)C(=O)N[C@@H](C)C(=O)N[C@@H](COP(=O)(O)O)C(=O)N[C@@H](Cc1ccc([N+](=O)[O-])cc1)C(=O)N[C@@H](CO)CC(=O)NCCC(=O)N[C@@H](Cc1ccc([N+](=O)[O-])cc1)C(=O)N[C@@H](CCCCN)C(N)=O [3a] (H-[dK][Nva][Phe(4-NO2)]A[pS][Phe(4-NO2)][β3hS][βAla][Phe(4-NO2)]K-NH2; N-terminus and C-terminus assumed)
Result string: -2,955 kcal mol^-1

Query string: Further, for CCC[C@H](NC(=O)[C@H](N)CCCCN)C(=O)N[C@@H](Cc1ccc([N+](=O)[O-])cc1)C(=O)NC(Cc1cscn1)C(=O)N[C@@H](COP(=O)(O)O)C(=O)N[C@@H](Cc1ccccc1)C(=O)N[C@@H](CO)CC(=O)NCCC(=O)N[C@@H](Cc1ccc([N+](=O)[O-])cc1)C(=O)N[C@@H](CCCCN)C(N)=O (stereo partly drawn) [4b] (H-[dK][Nva][Phe(4-NO2)][ξAla(4-thiazolyl)][pS]F[β3hS][βAla][Phe(4-NO2)]K-NH2; N-terminus and C-terminus assumed) ?
Result string: -3,345 kcal mol^-1

----------
# Target System: 14-3-3γ (Homo sapiens)
# Construct: made in house; host or cells: E. coli NiCo21 (DE3)
# Procedure Summary: Fluorescence anisotropy (FA) binary binding study: 14-3-3 titrated to fluorescein-labelled peptide
# Condition Info: Table S3; ΔG minus ΔG of previous peptide, FA; replicate 2
Where a SMILES comes first, the peptide text is derived from it. [ ]: non-standard residue; d: D form. The star is where a group is joined. ξ: configuration not given here. FITC = O=C1OC2(c3ccc(O)cc3Oc3cc(O)ccc32)c2ccc(NC(=S)*)cc21; Phe(4-NO2) = N[C@@H](Cc1ccc([N+](=O)[O-])cc1)C(=O)O; ξAla(4-thiazolyl) = NC(Cc1cscn1)C(=O)O; pS = N[C@@H](COP(=O)(O)O)C(=O)O; β3hS = N[C@@H](CO)CC(=O)O; Nva = CCC[C@H](N)C(=O)O; AEA = NCCOCC(=O)O; βAla = NCCC(=O)O
Form field: ΔΔG (to previous) (one value per entry).

Query string: Recorded ΔΔG (to previous) of CCC[C@H](NC(=O)[C@@H](CCCCN)NC(=O)COCCNC(=S)Nc1ccc2c(c1)C(=O)OC21c2ccc(O)cc2Oc2cc(O)ccc21)C(=O)N[C@@H](Cc1ccc([N+](=O)[O-])cc1)C(=O)NC(Cc1cscn1)C(=O)N[C@@H](COP(=O)(O)O)C(=O)N[C@@H](Cc1ccc([N+](=O)[O-])cc1)C(N)=O (some centres unmarked) [2h] ({FITC-AEA}-[dK][Nva][Phe(4-NO2)][ξAla(4-thiazolyl)][pS][Phe(4-NO2)]-NH2) , please.
Result string: 0,58 kcal/mol

Query string: Follow-up entry: CCC[C@H](NC(=O)[C@@H](CCCCN)NC(=O)COCCNC(=S)Nc1ccc2c(c1)C(=O)OC21c2ccc(O)cc2Oc2cc(O)ccc21)C(=O)N[C@@H](Cc1ccc([N+](=O)[O-])cc1)C(=O)NC(Cc1cscn1)C(=O)N[C@@H](COP(=O)(O)O)C(=O)N[C@@H](Cc1ccc([N+](=O)[O-])cc1)C(=O)N[C@@H](CO)CC(=O)NCCC(=O)N[C@@H](Cc1ccc([N+](=O)[O-])cc1)C(N)=O (stereo partly drawn) [2e] ({FITC-AEA}-[dK][Nva][Phe(4-NO2)][ξAla(4-thiazolyl)][pS][Phe(4-NO2)][β3hS][βAla][Phe(4-NO2)]-NH2)
Result string: 1,16 kcal/mol

----------
# Target System: 14-3-3γ (Homo sapiens)
# Construct: made in house; host or cells: E. coli NiCo21 (DE3)
# Sequence (P61981 1-247): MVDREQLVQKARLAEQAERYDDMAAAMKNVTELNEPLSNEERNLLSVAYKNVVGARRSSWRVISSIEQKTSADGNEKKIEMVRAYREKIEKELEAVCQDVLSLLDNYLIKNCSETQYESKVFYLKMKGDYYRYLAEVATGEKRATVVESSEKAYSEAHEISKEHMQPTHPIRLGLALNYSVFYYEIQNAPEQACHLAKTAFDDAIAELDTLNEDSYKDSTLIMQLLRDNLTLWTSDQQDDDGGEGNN
# Procedure Summary: Fluorescence anisotropy (FA) binary binding study: 14-3-3 titrated to fluorescein-labelled peptide
# Condition Info: FA, ΔG relative to the previously truncated peptide
Where a SMILES comes first, the peptide text is derived from it. [ ]: non-standard residue; d: D form. The star is where a group is joined. ξ: configuration not given here. FITC = O=C1OC2(c3ccc(O)cc3Oc3cc(O)ccc32)c2ccc(NC(=S)*)cc21; Phe(4-NO2) = N[C@@H](Cc1ccc([N+](=O)[O-])cc1)C(=O)O; ξAla(4-thiazolyl) = NC(Cc1cscn1)C(=O)O; pS = N[C@@H](COP(=O)(O)O)C(=O)O; β3hS = N[C@@H](CO)CC(=O)O; Nva = CCC[C@H](N)C(=O)O; AEA = NCCOCC(=O)O; βAla = NCCC(=O)O
Reported individual ΔΔG of removed residue by item:

// solved cases for individual ΔΔG of removed residue follow
1) CCC[C@H](NC(=O)[C@@H](CCCCN)NC(=O)COCCNC(=S)Nc1ccc2c(c1)C(=O)OC21c2ccc(O)cc2Oc2cc(O)ccc21)C(=O)N[C@@H](Cc1ccc([N+](=O)[O-])cc1)C(=O)NC(Cc1cscn1)C(=O)N[C@@H](COP(=O)(O)O)C(=O)N[C@@H](Cc1ccc([N+](=O)[O-])cc1)C(N)=O (stereo partly drawn) [2h] ({FITC-AEA}-[dK][Nva][Phe(4-NO2)][ξAla(4-thiazolyl)][pS][Phe(4-NO2)]-NH2) :: 0.6 kcal/mol
2) CCC[C@H](NC(=O)[C@@H](CCCCN)NC(=O)COCCNC(=S)Nc1ccc2c(c1)C(=O)OC21c2ccc(O)cc2Oc2cc(O)ccc21)C(=O)N[C@@H](Cc1ccc([N+](=O)[O-])cc1)C(=O)NC(Cc1cscn1)C(=O)N[C@@H](COP(=O)(O)O)C(=O)N[C@@H](Cc1ccc([N+](=O)[O-])cc1)C(=O)N[C@@H](CO)CC(=O)NCCC(N)=O (stereo partly drawn) [2f] ({FITC-AEA}-[dK][Nva][Phe(4-NO2)][ξAla(4-thiazolyl)][pS][Phe(4-NO2)][β3hS][βAla]-NH2) :: 1.5 kcal/mol

Query string: Provide value of individual ΔΔG of removed residue for this record tested with 14-3-3γ (Homo sapiens): CCC[C@H](NC(=O)[C@@H](CCCCN)NC(=O)COCCNC(=S)Nc1ccc2c(c1)C(=O)OC21c2ccc(O)cc2Oc2cc(O)ccc21)C(=O)N[C@@H](Cc1ccc([N+](=O)[O-])cc1)C(=O)NC(Cc1cscn1)C(=O)N[C@@H](COP(=O)(O)O)C(=O)N[C@@H](Cc1ccc([N+](=O)[O-])cc1)C(=O)N[C@@H](CO)CC(N)=O (stereo partly drawn) [2g] ({FITC-AEA}-[dK][Nva][Phe(4-NO2)][ξAla(4-thiazolyl)][pS][Phe(4-NO2)][β3hS]-NH2)
Result string: 0.4 kcal/mol
